inhibition at 30 µM values for the compounds below.
Tested On: HIV-1 protease (Human immunodeficiency virus type 1 group M subtype B, UniProt P04585)
Construct: The protease (or proteinase) enzyme, consisting of only 99 amino acids
Run Description: In vitro HIV protease inhibitory assay (fluorescently labeled substrate, avidin-polystyrene particles)
Format: biochemical
Recorded Conditions: HIV-1 dose 30.0 μM

{"columns": ["Compound", "Tested On", "inhibition at 30 µM, %"],
 "data": [
  ["C=CC(C1=C(O)C(CCCc2ccccc2)OC1=O)c1ccccc1 (centres unmarked)", "HIV-1 protease (Human immunodeficiency virus type 1 group M subtype B, UniProt P04585)", 68.6],
  ["O=C1OC(CCCc2ccccc2)(Cc2ccccc2)C(O)=C1C(c1ccccc1)C1CC1 (centres unmarked)", "HIV-1 protease (Human immunodeficiency virus type 1 group M subtype B, UniProt P04585)", 114],
  ["CCC1CCCCC12OC(=O)C(C(c1ccccc1)C1CC1)=C2O (single isomer, unassigned) [IX-33]", "HIV-1 protease (Human immunodeficiency virus type 1 group M subtype B, UniProt P04585)", 97.6],
  ["O=C1OC2(CCN(C(=O)OCC3c4ccccc4-c4ccccc43)CC2)C(O)=C1C(c1ccccc1)C1CC1 (centres unmarked)", "HIV-1 protease (Human immunodeficiency virus type 1 group M subtype B, UniProt P04585)", 87.4],
  ["CCCC(c1ccccc1)C1OC(=O)C(C(c2ccccc2)C2CC2)=C1O (centres unmarked)", "HIV-1 protease (Human immunodeficiency virus type 1 group M subtype B, UniProt P04585)", 102]
]}
